Target: ERK5 (activated catalytic domain) (Homo sapiens, UniProt Q13164)
Construct: purchased CarnaBiosciences 04-146
Sequence (Q13164 55-347 limits assumed): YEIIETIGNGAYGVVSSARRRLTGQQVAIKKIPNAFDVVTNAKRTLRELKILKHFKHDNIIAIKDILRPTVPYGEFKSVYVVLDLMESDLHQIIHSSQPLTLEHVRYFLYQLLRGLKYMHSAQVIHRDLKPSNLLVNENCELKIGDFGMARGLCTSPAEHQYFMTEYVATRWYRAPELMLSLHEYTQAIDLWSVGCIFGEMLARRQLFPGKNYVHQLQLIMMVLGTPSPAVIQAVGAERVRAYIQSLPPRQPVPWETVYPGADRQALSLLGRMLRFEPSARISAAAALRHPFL
Assay: Cell-Free Assay of ERK5 Inhibition (Time-Resolved FRET, 4EBP1 peptide phosphorylation)
Type: biochemical
Settings: ERK5 catalytic domain 4 nM, 1 mM ATP, 1 μM biotinylated 4EBP1 peptide, 30 min at 37° C.; mean where repeated; read-out: Cell-free assay (IC50 in nM)
measurement_label: IC50 (nM)
// return numeric value only (unit: nM, not printed)

The cases that follow already have their IC50 on record.
CO[C@H]1CC[C@H](c2cnc3[nH]c(=O)n(C4CCN(C(=O)c5ccc(OC(F)(F)F)cc5N)CC4)c3c2)CC1 = 107
Nc1cc(OC(F)(F)F)ccc1C(=O)N1CCC(n2c(=O)[nH]c3ncc([C@H]4CC[C@H](O)CC4)cc32)CC1 = 52

Read the next record carefully.
Field request: IC50 | item: CN1CCC(Oc2cnc3[nH]c(=O)n(C4CCN(C(=O)c5ccc(OC(F)(F)F)cc5N)CC4)c3c2)C1 (single isomer, unassigned; isomer 1) [Example 47]
239

---

Biological target: ERK5 (activated catalytic domain) (Homo sapiens)
Construct: purchased CarnaBiosciences 04-146
Experiment: Cell-Free Assay of ERK5 Inhibition (Time-Resolved FRET, 4EBP1 peptide phosphorylation)
Format: biochemical
Conditions: ERK5 catalytic domain 4 nM, 1 mM ATP, 1 μM biotinylated 4EBP1 peptide, 30 min at 37° C.; mean where repeated; read-out: Cell-free assay (IC50 in nM)
Decide using IC50 alone. Strictly below 200 nM: t. Equal to or above 200 nM: f.

Does this compound meet the criterion IC50 < 200 nM? CN1CCC(c2cnc3[nH]c(=O)n(C4CCN(C(=O)c5ccc(OC(F)(F)F)cc5N)CC4)c3c2)CC1 [Example 54]
t

---

Biological target: ERK5 (activated catalytic domain) (Homo sapiens, UniProt Q13164)
Construct: purchased CarnaBiosciences 04-146
Assay: Cell-Free Assay of ERK5 Inhibition (Time-Resolved FRET, 4EBP1 peptide phosphorylation)
Type: biochemical
Conditions: ERK5 catalytic domain 4 nM, 1 mM ATP, 1 μM biotinylated 4EBP1 peptide, 30 min at 37° C.; mean where repeated; read-out: Cell-free assay (IC50 in nM)
Decide using IC50 alone. Strictly below 200 nM: met. Equal to or above 200 nM: not met.

Cc1nc2[nH]c(=O)n(C3CCN(C(=O)c4ccc(OC(F)(F)F)cc4N)CC3)c2cc1C1CCOCC1 = not met
Nc1cc(OC(F)(F)F)ccc1C(=O)N1CCC(n2c(=O)[nH]c3ncc(C4CCC4)cc32)CC1 = not met
CN1CCC(Oc2cnc3[nH]c(=O)n(C4CCN(C(=O)c5ccc(OC(F)(F)F)cc5)CC4)c3c2)CC1 = met
Nc1cc(S(F)(F)(F)(F)F)ccc1C(=O)N1CCC(n2c(=O)[nH]c3ncc(C4CCOCC4)cc32)CC1 = met
Nc1cc(OC(F)(F)F)ccc1C(=O)N1CCC(n2c(=O)[nH]c3ncc(N4CCOCC4)cc32)CC1 = met
Nc1cc(OC(F)(F)F)ccc1C(=O)N1CCC(n2c(=O)[nH]c3ncc([C@H]4CC[C@@H](O)CC4)cc32)CC1 = met
Nc1cc(OC(F)(F)F)ccc1C(=O)N1CCC(n2c(=O)[nH]c3ncc(C4CCOC4)cc32)CC1 (racemic) = met
O=C(c1ccc(OC(F)(F)F)cc1)N1CCC(n2c(=O)[nH]c3ncc(N4CCOCC4)cc32)CC1 = not met
Nc1cc(OC(F)(F)F)ccc1C(=O)N1CCC(n2c(=O)[nH]c3ncc(CC4CCOC4)cc32)CC1 (racemic) = met
O=C(c1ccc(S(F)(F)(F)(F)F)cc1)N1CCC(n2c(=O)[nH]c3ncc(C4CCOCC4)cc32)CC1 = not met

Does this molecule meet the criterion IC50 < 200 nM? Nc1cc(OC(F)(F)F)ccc1C(=O)N1CCC(n2c(=O)[nH]c3ncc(OC4CCOC4)cc32)CC1 (single isomer, unassigned; isomer 1) [Example 43]
met

---

Target: ERK5 (activated catalytic domain) (Homo sapiens, UniProt Q13164)
Construct: purchased CarnaBiosciences 04-146
Experiment: Cell-Free Assay of ERK5 Inhibition (Time-Resolved FRET, 4EBP1 peptide phosphorylation)
Format: biochemical
Details: ERK5 catalytic domain 4 nM, 1 mM ATP, 1 μM biotinylated 4EBP1 peptide, 30 min at 37° C.; mean where repeated; read-out: Cell-free assay (IC50 in nM)
Decide using IC50 alone. Strictly below 300 nM: Y. Equal to or above 300 nM: N.

Does this molecule meet the criterion IC50 < 300 nM? Nc1cc(OC(F)(F)F)ccc1C(=O)N1CCC(n2c(=O)[nH]c3ncc(C45CCOCC4C5)cc32)CC1 (racemic) [Example 31]
Y

Could you do the same for O=C(c1ccc(OC(F)(F)F)cc1)N1CCC(n2c(=O)[nH]c3ncc(C4CCCC4)cc32)CC1 [Example 17] , please?
Y

---

Target: ERK5 (activated catalytic domain) (Homo sapiens, UniProt Q13164)
Construct: purchased CarnaBiosciences 04-146
Experiment: Cell-Free Assay of ERK5 Inhibition (Time-Resolved FRET, 4EBP1 peptide phosphorylation)
Format: biochemical
Conditions: ERK5 catalytic domain 4 nM, 1 mM ATP, 1 μM biotinylated 4EBP1 peptide, 30 min at 37° C.; mean where repeated; read-out: Cell-free assay (IC50 in nM)
Experimental: Two assays were performed to assess the ERK5 inhibitory activity of compounds of the Examples, a cell-based assay and a cell-free biochemical assay. Where repeat measurements were taken, the value reported is a mean average. An assay was performed to measure the capacity of each compound to inhibit ERK5 enzymatic activity. Compound potency was evaluated by Time-Resolved Forster Resonance Energy Transfer (FRET system). […]
measurement_label: IC50 (nM)
// return numeric value only (unit: nM, not printed)

The cases that follow already have their IC50 on record.
O=C(c1ccc(OC(F)(F)F)cc1)N1CCC(n2c(=O)[nH]c3ncc([C@H]4CC[C@@H](O)CC4)cc32)CC1 = 288
O=C(c1ccc(OC(F)(F)F)cc1)N1CCC(n2c(=O)[nH]c3ncc(Br)cc32)CC1 = 1080
Nc1cc(OC(F)(F)F)ccc1C(=O)N1CCC(n2c(=O)[nH]c3ncc(C4CC5CCC4C5)cc32)CC1 (stereo not shown) = 681
Nc1cc(OC(F)(F)F)ccc1C(=O)N1CCC(n2c(=O)[nH]c3ncc(N4CCO[C@H](CO)C4)cc32)CC1 = 103
Nc1cc(OC(F)(F)F)ccc1C(=O)N1CCC(n2c(=O)[nH]c3ncc(OC4CCOC4)cc32)CC1 (racemic) [Example 55] = 87
O=C(c1ccc(OC(F)(F)F)cc1)N1CCC(n2c(=O)[nH]c3ncc(C4CCOC4)cc32)CC1 (racemic) = 203

Field request: IC50 | item: "Nc1cc(OC(F)(F)F)ccc1C(=O)N1CCC(n2c(=O)[nH]c3ncc(C45CC(C(F)F)(C4)C5)cc32)CC1"
376

---

Molecular target: ERK5 (activated catalytic domain) (Homo sapiens)
Construct: purchased CarnaBiosciences 04-146
Assay: Cell-Free Assay of ERK5 Inhibition (Time-Resolved FRET, 4EBP1 peptide phosphorylation)
Format: biochemical
Conditions: ERK5 catalytic domain 4 nM, 1 mM ATP, 1 μM biotinylated 4EBP1 peptide, 30 min at 37° C.; mean where repeated; read-out: Cell-free assay (IC50 in nM)
measurement_label: IC50 (nM)
// return numeric value only (unit: nM, not printed)

The cases that follow already have their IC50 on record.
Nc1cc(OC(F)(F)F)ccc1C(=O)N1CCC(n2c(=O)[nH]c3ncc(C4CC5(CC(F)C5)C4)cc32)CC1 (stereo not shown) = 395
Nc1cc(OC(F)(F)F)ccc1C(=O)N1CCC(n2c(=O)[nH]c3ncc(C4CCCO4)cc32)CC1 (racemic) = 377
O=C(c1ccc(OC(F)(F)F)cc1O)N1CCC(n2c(=O)[nH]c3ncc(C4CCOCC4)cc32)CC1 = 54

Field request: IC50 | item: O=C(c1ccc(S(F)(F)(F)(F)F)cc1)N1CCC(n2c(=O)[nH]c3ncc(C4CCOCC4)cc32)C1 (racemic)
1620

---

Target: ERK5 (Homo sapiens, UniProt Q13164)
Construct: MEF2-luciferase reporter
Sequence (Q13164 whole entry): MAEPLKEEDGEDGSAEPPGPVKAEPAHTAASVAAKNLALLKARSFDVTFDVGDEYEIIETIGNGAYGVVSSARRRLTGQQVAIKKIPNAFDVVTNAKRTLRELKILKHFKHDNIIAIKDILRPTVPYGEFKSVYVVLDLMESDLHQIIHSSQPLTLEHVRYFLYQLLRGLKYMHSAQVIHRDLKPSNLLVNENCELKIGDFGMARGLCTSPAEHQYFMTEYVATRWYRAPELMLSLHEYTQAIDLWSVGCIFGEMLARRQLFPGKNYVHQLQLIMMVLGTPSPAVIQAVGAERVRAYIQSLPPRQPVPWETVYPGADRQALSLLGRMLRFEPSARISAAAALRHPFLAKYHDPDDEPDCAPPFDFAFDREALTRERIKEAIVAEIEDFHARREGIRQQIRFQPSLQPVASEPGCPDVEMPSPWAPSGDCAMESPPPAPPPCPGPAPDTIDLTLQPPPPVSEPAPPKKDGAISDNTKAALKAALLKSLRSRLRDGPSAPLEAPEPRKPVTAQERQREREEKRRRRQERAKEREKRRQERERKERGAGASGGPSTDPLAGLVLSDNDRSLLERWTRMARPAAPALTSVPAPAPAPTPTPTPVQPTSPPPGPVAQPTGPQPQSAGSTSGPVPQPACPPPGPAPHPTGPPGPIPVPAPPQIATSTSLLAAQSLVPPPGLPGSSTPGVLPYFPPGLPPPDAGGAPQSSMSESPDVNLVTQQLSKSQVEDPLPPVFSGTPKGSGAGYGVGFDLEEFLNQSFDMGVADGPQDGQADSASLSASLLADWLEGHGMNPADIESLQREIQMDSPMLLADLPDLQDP
Assay: Inhibition of Cellular ERK5 Activity (cell-based assay, MEF2 luciferase reporter in SN12C cells)
Conditions: renal cancer cell line SN12C, doxycycline-induced MEKSDD, mean where repeated
Entries and their IC50 values follow.
// return numeric value only (unit: nM, not printed)

Nc1cc(OC(F)(F)F)ccc1C(=O)N1CCC(n2c(=O)[nH]c3ncc(C45CC(C(F)(F)F)(C4)C5)cc32)CC1 = 310
Nc1cc(OC(F)(F)F)ccc1C(=O)N1CCC(n2c(=O)[nH]c3ncc([C@H]4CC[C@@H](O)CC4)cc32)CC1 = 244
O=C(c1ccc(OC(F)(F)F)cc1)N1CCC(n2c(=O)[nH]c3ncc(N4CCOCC4)cc32)CC1 = 279

Read the next record carefully.
Field request: IC50 | item: "O=C(c1ccc(OC(F)(F)F)cc1)N1CCC(n2c(=O)[nH]c3ncc(Br)cc32)CC1"
641
